Origin of values: paper PMC11246513

Target: ABCB1 (Homo sapiens, UniProt P08183)
Sequence (P08183 whole entry): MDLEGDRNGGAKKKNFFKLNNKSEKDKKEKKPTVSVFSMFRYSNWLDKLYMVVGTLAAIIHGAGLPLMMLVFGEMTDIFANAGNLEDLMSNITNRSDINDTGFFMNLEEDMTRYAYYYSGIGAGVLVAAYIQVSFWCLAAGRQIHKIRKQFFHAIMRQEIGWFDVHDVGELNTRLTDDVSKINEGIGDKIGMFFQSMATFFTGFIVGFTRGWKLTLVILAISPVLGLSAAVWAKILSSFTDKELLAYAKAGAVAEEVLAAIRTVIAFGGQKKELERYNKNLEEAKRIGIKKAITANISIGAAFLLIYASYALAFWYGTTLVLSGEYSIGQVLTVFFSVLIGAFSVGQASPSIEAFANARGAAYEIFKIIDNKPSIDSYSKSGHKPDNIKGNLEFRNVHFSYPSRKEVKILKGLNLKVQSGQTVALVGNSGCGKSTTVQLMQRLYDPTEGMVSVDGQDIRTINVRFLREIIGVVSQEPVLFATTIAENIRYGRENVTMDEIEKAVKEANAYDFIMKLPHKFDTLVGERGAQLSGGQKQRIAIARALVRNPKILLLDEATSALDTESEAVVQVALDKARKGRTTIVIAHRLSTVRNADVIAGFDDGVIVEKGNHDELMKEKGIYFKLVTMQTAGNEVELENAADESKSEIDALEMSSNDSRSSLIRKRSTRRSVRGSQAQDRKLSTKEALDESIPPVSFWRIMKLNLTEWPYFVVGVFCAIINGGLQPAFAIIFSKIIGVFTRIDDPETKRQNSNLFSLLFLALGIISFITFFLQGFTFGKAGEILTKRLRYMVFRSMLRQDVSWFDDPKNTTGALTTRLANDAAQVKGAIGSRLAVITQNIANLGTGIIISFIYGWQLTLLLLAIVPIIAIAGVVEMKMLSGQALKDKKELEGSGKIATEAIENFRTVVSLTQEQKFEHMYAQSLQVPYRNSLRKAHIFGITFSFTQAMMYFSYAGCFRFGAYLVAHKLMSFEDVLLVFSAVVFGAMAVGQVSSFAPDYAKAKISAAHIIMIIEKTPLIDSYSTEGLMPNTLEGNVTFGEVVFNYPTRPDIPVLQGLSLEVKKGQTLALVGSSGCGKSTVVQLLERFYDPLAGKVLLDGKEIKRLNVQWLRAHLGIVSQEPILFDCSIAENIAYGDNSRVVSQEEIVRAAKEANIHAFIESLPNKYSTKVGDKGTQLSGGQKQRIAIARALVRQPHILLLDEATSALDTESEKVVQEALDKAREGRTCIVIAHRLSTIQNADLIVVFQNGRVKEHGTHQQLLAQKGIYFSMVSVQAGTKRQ
Test: rhodamine […] efflux inhibition, flow cytometry, HEK293T ABCB1 cells
Listed next: entries and their corresponding IC50.
Answers without a unit are incomplete; give the number and then its unit.

                                smiles_text  measure_name  test_result
0  COc1cc2c(cc1OC)CN(CCc1ccc(NC(=O)c3cc(OC)c(OC)cc3NC(=O)c3cnc4ccccc4c3)cc1)CC2          IC50     0.016 µM

Here is another compound to look at.
Give IC50 (ABCB1 (Homo sapiens, UniProt P08183)) of the following compound: "O=C1N[C@@H](Cc2c[nH]c3ccccc23)C(=O)N2[C@H]1C[C@@]1(Cc3ccccc3)c3ccccc3N(Cc3ccccc3)[C@@H]21"
5.9 µM
